Please respond with reported aptazyme ON/OFF ratio for every item in the list.
B1: Pistol ribozyme (parent)
chain: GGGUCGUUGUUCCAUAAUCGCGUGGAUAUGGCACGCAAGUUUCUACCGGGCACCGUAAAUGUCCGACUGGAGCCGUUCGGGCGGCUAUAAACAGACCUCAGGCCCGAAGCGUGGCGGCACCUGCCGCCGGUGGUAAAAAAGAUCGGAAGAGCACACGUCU

variants of: B1; assay: aptazyme ON/OFF ratio, guanine; higher = stronger switching; co-transcriptional cleavage with and without guanine
Output spec: single numeric token, no unit.

Endpoint output: aptazyme ON/OFF ratio of U7C U8A G9U U10G U11G C13U . Value?
1.06

Query (variant): U7A U11A C12A C13G ; field requested: aptazyme ON/OFF ratio
1.26

Given the variant U7G G9C U10G U11C C12U , what is its reported aptazyme ON/OFF ratio?
1.28

What does the record list as aptazyme ON/OFF ratio for U7C U8G G9A U10G C12A C13U ?
1.36

Fill blank: measured aptazyme ON/OFF ratio of the variant U7C U8G G9U C12G C13G is ____.
1.25

Which value of aptazyme ON/OFF ratio has been reported for U8C G9U U11G C12A C13A in the records?
1.16

Query (variant): U7G U8G G9C U10A U11G C12U C13U ; field requested: aptazyme ON/OFF ratio
1.05

Returns the measured aptazyme ON/OFF ratio for the input variant. Input: U7C U8C G9C C12A C13A
1.08

Bench note: what aptazyme ON/OFF ratio did U8G G9C U10A U11G C12A C13U show?
1.16

Recorded aptazyme ON/OFF ratio for U8C G9A U10C U11G C12A C13A , please?
1.44

Name the recorded aptazyme ON/OFF ratio for U7G U8A G9A U10G .
1.49

Need aptazyme ON/OFF ratio of U7G U8A U10C U11A C12U C13G , thanks.
1.19

Name the reported aptazyme ON/OFF ratio value associated with the variant U7G U8C G9C U11C C12A C13A
1.11

What does the data say about its aptazyme ON/OFF ratio? Entry: U7G U8C G9A U10C U11C C12A
1.16

Bench note: what aptazyme ON/OFF ratio did U7A U8C G9U U11G C12G C13U show?
1.07

Endpoint output: aptazyme ON/OFF ratio of U7G U8C U10G U11C C12G C13G . Value?
1.18

Returns the measured aptazyme ON/OFF ratio for the input variant. Input: U8A G9A U11A C12G C13U
1.04

Give the measured aptazyme ON/OFF ratio of U7A U8C G9U U11A C13G .
1.07

Record request: aptazyme ON/OFF ratio value, item U8C G9U U10C U11A C12A
1.15

What value of aptazyme ON/OFF ratio has been recorded for this entry: U7A U8G G9A U11C C12A C13G
1.3

Recorded aptazyme ON/OFF ratio of U7C G9U U10A , please.
1.32

Dear colleague, I am looking for the recorded aptazyme ON/OFF ratio of the following variant: U7G U8G U10C C12A
1.49
